System: BDF1 mice, s.c. Lewis lung carcinoma, T/C %
Assay: NCI In Vivo Anticancer Drug Screen. Data for tumor model Lewis Lung Carcinoma (subcutaneous) in B6D2F1 (BDF1) mice
Conditions: endpoint: mean tumor weight; dose: 12.5 mg/kg/injection; schedule: Q01DX011 (ip); vehicle: saline; higher = larger tumour
Results filed as inconclusive are left out.
ENDPOINT LABEL: T/C

**Query** Name the reported T/C value associated with the compound CN(C)/N=N/c1nc[nH]c1C(N)=O
**Result** 76 % of control

**Query** Similarly, CC[C@H](c1ccc(O)cc1)[C@@H](CC)c1ccc(O)cc1 ?
**Result** 92 % of control

**Query** Similarly, O=C(/C=C/c1ccc(O)c(O)c1)c1ccc(O)c(O)c1O ?
**Result** 57 % of control

**Query** Similarly, C[n+]1ccc(Nc2ccc(NC(=O)c3ccc(Nc4cc[n+](C)c5ccc(N)cc45)cc3N)cc2)cc1 ?
**Result** 40 % of control
